Reference source: ChEMBL document CHEMBL1155709

Assay: Cytotoxicity against mouse 26-L5 cells by MTT assay
Type: functional
Details: Mus musculus; read-out: ED50 (the source's name)
readoutLabel: pEC50
// field semantics: pEC50 = negative decimal log of concentration (mol/L)

Consider the following illustrative entries.
COc1cc(O)c([C@@H]2C[C@H](CCc3ccc(O)cc3)O[C@@H](c3ccc(O)cc3)C2)c2c1C(=O)CC(c1ccc(O)cc1)O2 (some centres not stated) [CALYXIN G] | 4.37
O=c1[nH]cc(F)c(=O)[nH]1 [FLUOROURACIL] | 6.28

// pEC50 value for COc1cc(O)c2c(c1C(=O)/C=C/c1ccc(O)cc1)O[C@@H](c1ccc(O)cc1)C[C@H]2C[C@@H](O)CCc1ccc(O)cc1 [CALYXIN L] : 4.55

// pEC50 value for COc1cc(O)c([C@@H]2C[C@H](CCc3ccc(O)cc3)O[C@H](c3ccc(O)cc3)C2)c(O)c1C(=O)/C=C/c1ccc(O)cc1 [CALYXIN B] : 4.98

// pEC50 value for COc1cc(/C=C/C(=O)CC(=O)/C=C/c2ccc(O)c(OC)c2)ccc1O [CURCUMIN] : 4.63

// pEC50 value for COc1cc(O)c2c(c1C(=O)/C=C/c1ccc(O)cc1)O[C@@H](c1ccc(O)cc1)[C@@H]1[C@@H](c3ccc(O)cc3)O[C@@H](CCc3ccc(O)cc3)C[C@@H]21 [CALYXIN I] : 5.08

// pEC50 value for COc1cc(O)c2c(c1C(=O)/C=C/c1ccc(O)cc1)O[C@H](c1ccc(O)cc1)[C@@H]1[C@@H](c3ccc(O)cc3)O[C@@H](CCc3ccc(O)cc3)C[C@@H]21 [EPICALYXIN I] : 4.92
